test: control 3'UTR Renilla luciferase suppression, dose response, counter-screen for Shn3 inhibitor project, cell-based, Clone20-Shn3RL, cherry-picked (AID 624133); conditions: Clone20-Shn3RL cells, Renilla luciferase luminescence, 24 h; at 35 µM (top of the series) unless noted;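 further: 0% = neutral control wells and -100% = positive control wells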
Hit rate of the full screen: of about 1,600 compounds, about 1,300 (81%) were called active. So high a share suggests a set chosen from earlier hits. Only a sample is shown. Potency and affinity values are given separately.
class 1 means recorded activity change, negative = inhibition is 20% or above; class 0 means it is below 20%.

>>> qualitative_label("COc1ccc2c(c1OC)C(=O)N1c3ccccc3C(=O)N(c3ccccc3F)C21 (configuration not stated)")
"class 1"
>>> qualitative_label("CC1CCN(C(=O)c2ccc(N3C(=O)C4CCC(C)CC4C3=O)cc2)CC1 (configuration not stated)")
"class 1"
>>> qualitative_label("Cc1cccc2c(C(=O)N3CCN(c4ccccn4)CC3)cc(-c3cccc(Br)c3)nc12")
"class 0"
>>> qualitative_label("C[C@]12CC[C@H](O)CC1=CCC1C2CC[C@@]2(C)C1CCC21OCCO1 (some centres not stated)")
"class 0"
>>> qualitative_label("CCCCN1CC(COCc2ccccc2)Oc2cccc(Oc3ccc(C)cc3)c2S1(=O)=O (configuration not stated)")
"class 1"
>>> qualitative_label("CCOc1cc(/C=C2\\C(=O)ON=C2C)ccc1OCc1ccccc1")
"class 0"
>>> qualitative_label("O=C(CSc1nc(C(F)(F)F)cc(=O)[nH]1)N1CCCC1")
"class 1"
>>> qualitative_label("COCc1nn2c(N)c(C#N)cnc2c1-c1ccccc1")
"class 0"
>>> qualitative_label("COc1ccccc1-n1c(SCC(=O)Nc2cc(C)on2)nc2c(c1=O)SCC2")
"class 1"
>>> qualitative_label("Cc1onc(-c2c(Cl)cccc2Cl)c1C(=O)N[C@@H]1C(=O)N2[C@@H]1SC(C)(C)[C@@H]2C(=O)O")
"class 1"
>>> qualitative_label("Cc1ccc(C(=O)N2CCN(C)CC2)cc1S(=O)(=O)N1CCCCCC1")
"class 1"
>>> qualitative_label("CC(C)(CNC(=O)c1ccc(Cl)c(S(=O)(=O)N2CCc3ccccc3C2)c1)N1CCOCC1")
"class 0"
>>> qualitative_label("Cc1ccc(CNC(=O)c2ccc3c(=O)c(O)c(-c4ccc(C)cc4)[nH]c3c2)cc1")
"class 0"
>>> qualitative_label("O=C(Nc1nc(-c2ccccc2)cs1)C1CCCCN1S(=O)(=O)c1ccccc1 (configuration not stated)")
"class 0"
>>> qualitative_label("O=S(=O)(c1ccc(Cl)cc1)n1ccc2cccnc21")
"class 0"
>>> qualitative_label("COc1ccccc1N1CCN(c2ncc(C(=O)N3CCN(c4cccc(Cl)c4)CC3)c3ccccc23)CC1")
"class 1"
>>> qualitative_label("CNS(=O)(=O)c1cccc(C(=O)OCc2cc(C(C)=O)ccc2OC)c1")
"class 1"
>>> qualitative_label("O=C(NCCNC(=O)Oc1cccc2ccccc12)Oc1cccc2ccccc12")
"class 1"
>>> qualitative_label("Nc1c(Br)cc2c(c1Br)C(O)c1ccccc1-2 (configuration not stated)")
"class 1"
>>> qualitative_label("CC(C)(C)c1nc(NCCN2CCOCC2)c2nnn(Cc3ccccc3Cl)c2n1")
"class 0"
>>> qualitative_label("CC(C)CC(NC(=O)c1ccc(Cl)cc1)C(=O)OCC(=O)c1ccc2c(c1)NC(=O)CO2 (configuration not stated)")
"class 0"
>>> qualitative_label("CN1CCN(c2ccc(-c3ccc4ccccc4n3)cc2)CC1")
"class 0"
>>> qualitative_label("CC(NNC(=S)N1CCN(c2ccccn2)CC1)c1nccc2ccccc12 (configuration not stated)")
"class 1"
>>> qualitative_label("COc1ccc(C(O)c2nc(-c3cccc(F)c3)cs2)cc1 (configuration not stated)")
"class 1"
>>> qualitative_label("CC(C)C[C@@H](CO)N(Cc1ccccc1)S(=O)(=O)N(Cc1ccccc1)[C@H](CO)CC(C)C")
"class 0"
>>> qualitative_label("CC(C)c1ccc(Oc2cccc3c2S(=O)(=O)N(C2CCCC2)CC(COCc2ccccc2)O3)cc1 (configuration not stated)")
"class 1"

* * *

assay: control 3'UTR Renilla luciferase suppression, dose response, counter-screen for Shn3 inhibitor project, cell-based, Clone20-Shn3RL, cherry-picked (AID 624133); details: Clone20-Shn3RL cells, Renilla luciferase luminescence, 24 h; at 35 µM (top of the series) unless noted;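 further: 0% = neutral control wells and -100% = positive control wells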
Among all 1,600 compounds or so, about 1,300 (81%) were called active. The set was probably picked from earlier hits. Only a sample is shown. Measured potencies and affinities stand elsewhere.
true means recorded activity change, negative = inhibition is 30% or above; false means it is below 30%.

>>> qualitative_label("O=C(COC(=O)/C=C/c1ccc(OC(F)F)cc1)Nc1ccc2[nH]c(=O)[nH]c2c1")
"false"
>>> qualitative_label("Cc1ccc(CNC(=O)CSc2c3c(nc4ccc(Cl)cc24)CCCC3)o1")
"true"
>>> qualitative_label("Cc1ccc(NC(=O)c2cc3ccccc3oc2=O)cc1S(=O)(=O)N(C)C")
"true"
>>> qualitative_label("CC(C)NCC(O)COc1cccc2ccccc12 (stereo unspecified)")
"false"
>>> qualitative_label("CC(C)c1c(O)c2c(n(-c3ccccc3)c1=O)CCCC2")
"false"

* * *

test: control 3'UTR Renilla luciferase suppression, dose response, counter-screen for Shn3 inhibitor project, cell-based, Clone20-Shn3RL, cherry-picked (AID 624133); settings: Clone20-Shn3RL cells, Renilla luciferase luminescence, 24 h; at 35 µM (top of the series) unless noted;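 further: 0% = neutral control wells and -100% = positive control wells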
Hit rate of the full screen: of about 1,600 compounds, about 1,300 (81%) were called active. The set was probably picked from earlier hits. Not all results are given here. Potency and affinity values are given separately.
activity change, negative = inhibition overview
readout.name: activity change, negative = inhibition (%)

>>> result_number("Cc1ccc(S(=O)(=O)NCCc2cc3ccc(C)cc3[nH]c2=O)cc1")
33.6
>>> result_number("CC(Oc1ccc(F)cc1)C(=O)N(CCC1=CCCCC1)c1c(N)n(Cc2ccccc2)c(=O)[nH]c1=O (stereo not given)")
-25
>>> result_number("Cc1cccc(N2CCN(C(=S)Nc3ccc4nc(N5CCN(C)CC5)cc(C)c4c3)CC2)c1C")
22.7
>>> result_number("COc1ccc2c(CC(=O)OCC(=O)N(C)c3c(N)n(Cc4ccccc4)c(=O)[nH]c3=O)coc2c1")
-12.5
>>> result_number("COc1ccc(C(=O)OCC(=O)Nc2ccc3[nH]c(=O)[nH]c3c2)cc1")
62.5

* * *

assay: control 3'UTR Renilla luciferase suppression, dose response, counter-screen for Shn3 inhibitor project, cell-based, Clone20-Shn3RL, cherry-picked (AID 624133); details: Clone20-Shn3RL cells, Renilla luciferase luminescence, 24 h; at 35 µM (top of the series) unless noted;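 further: 0% = neutral control wells and -100% = positive control wells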
Screen size: about 1,600 compounds; about 1,300 (81%) were called active. The set was probably picked from earlier hits. Only a sample is shown. Measured potencies and affinities stand elsewhere.
readout.name: activity change, negative = inhibition (%)

>>> result_number("O=C(NCc1ccccc1C(F)(F)F)c1cccc2c1C(=O)c1ccc(N3CCC(N4CCCCC4)CC3)cc1S2(=O)=O")
-33.6
>>> result_number("COc1ccc(OC)c(NC(=O)c2cc(-c3cc(F)ccc3OCC3CCCO3)n[nH]2)c1 (configuration not stated)")
26.4
>>> result_number("CCOC(=O)c1ccc(NC(=O)c2nc[nH]c2C(=O)NCCNC(=O)c2[nH]cnc2C(=O)Nc2ccc(C(=O)OCC)cc2)cc1")
47.9
>>> result_number("Cc1cccc(C)c1NC(=O)CN(C)C(=O)c1cc(S(=O)(=O)N(C)C)ccc1N1CCCC1")
41.7
>>> result_number("CCOC(=O)Cn1c(S(=O)(=O)Cc2ccccc2Cl)nc(-c2ccccc2)c1-c1ccccc1")
110
>>> result_number("COc1ccc(-n2ncc3c(N4CCCCC4)ncnc32)cc1")
-75
>>> result_number("CC(C)(C)C(=O)Nc1cc(S(=O)(=O)N2CCCCC2)ccc1N1CCCCC1")
50
>>> result_number("CCS(=O)(=O)c1ccc2oc(SCC(=O)N3CCCCC3)nc2c1")
35
>>> result_number("CC(=O)c1cccc(NS(=O)(=O)c2ccc(-c3cnc(C4CC4)o3)cc2)c1")
8.33
>>> result_number("CCN(CC)c1ccc2c(c1)oc(=O)c1c(Cl)cc(=O)oc12")
-33.3
>>> result_number("COc1cccc(-c2nc(NC3CCCC3)c3ccccc3n2)c1O")
-22.7
>>> result_number("COc1ccc(CNC(=O)C(C)n2ccc3cc(S(=O)(=O)N4CCCCCC4)ccc32)cc1 (configuration not stated)")
12.2
>>> result_number("CCOC(=O)c1cn(CC(=O)Nc2cccc(Cl)c2C)nn1")
16.7
>>> result_number("NC(=O)NC(CC(=O)NCCc1ccccn1)c1ccccc1Cl (configuration not stated)")
-110
>>> result_number("CCC(C)[C@H]1CNC(=S)N1CCc1cc(C(F)(F)F)cc(C(F)(F)F)c1 (some centres not stated)")
177
>>> result_number("CC(C)(C)n1nnnc1C(c1cccs1)N1CCCC2(CCCCC2)C1 (configuration not stated)")
54.2
>>> result_number("CCOC(=O)c1c(C)[nH]c(C(=O)COC(=O)[C@H](C)N2C(=O)C3CCCCC3C2=O)c1C (some centres not stated)")
-5
>>> result_number("CC(C)N1CCN(c2ccc(OCC3COC(Cn4cncn4)(c4ccc(Cl)cc4Cl)O3)cc2)CC1 (configuration not stated)")
0
>>> result_number("CSc1nnc(-c2ccco2)n1-c1ccccc1")
31.8
>>> result_number("C[C@@H]1CN([C@H](C)CO)C(=O)c2cc(Br)cnc2O[C@H]1CN(C)C(=O)Cc1ccncc1")
83.3
>>> result_number("O=C(Nc1cccc(-c2ccc(N3CCCCC3)nn2)c1)C(F)(F)F")
-50
>>> result_number("Nc1nc(N)c2cc(S(=O)(=O)c3ccc4ccccc4c3)ccc2n1")
16.7
>>> result_number("COc1cc(NC(=O)c2cc3c(Cl)nc4ccccc4c3s2)cc(OC)c1OC")
60
>>> result_number("COc1ccc(NS(=O)(=O)c2ccc(OC)c(N(C)S(=O)(=O)c3ccc(Cl)cc3)c2)cc1")
-58.3
>>> result_number("COc1ccccc1C(=O)Nc1nc2ccccc2[nH]1")
43.3
>>> result_number("CCOC(=O)C1CCN(c2cc3c(cc2NC(=O)c2ccccc2Br)n(C)c(=O)n3C)CC1")
-4.54
>>> result_number("Cc1cccc(C(=O)Nc2ccc(C(=O)/C=C/c3ccncc3)cc2)c1")
-100
>>> result_number("COc1ccc(N(C)C(=O)c2ccc3snnc3c2)cc1")
-52.1
>>> result_number("CCOc1cc(C)c(S(=O)(=O)Nc2ccc3cn[nH]c3c2)cc1C")
0
>>> result_number("O=C(CSc1nc2[nH]ncc2c(=O)[nH]1)Nc1ccccc1C(F)(F)F")
-108
>>> result_number("CN(C)c1ccc(/C=C/c2nc3ccccc3s2)cc1")
27.8
>>> result_number("CCn1c(C)cc(C(=O)COC(=O)c2ccccc2[N+](=O)[O-])c1C")
-13.6
>>> result_number("C[C@@H]1CC=C[C@H]2[C@H]1C(=O)N(Cc1ccccc1)[C@H]2c1cccc([N+](=O)[O-])c1")
162
>>> result_number("O=C(NCCCn1ccnc1)C(=O)NCC1OCCCN1S(=O)(=O)c1ccccc1 (configuration not stated)")
8.33
>>> result_number("COc1cc(OC)cc(C(=O)OCC(=O)Nc2ccc(F)cc2F)c1")
11.1
>>> result_number("CN(C)CCN1C(=O)c2cccc3cc([N+](=O)[O-])cc(c23)C1=O")
310
>>> result_number("COc1ccc(C(=O)Cn2c(C(=O)/C=C/c3ccccc3)nc3ccccc32)cc1")
170
>>> result_number("O=C(CSc1nnc(Nc2ccccc2)s1)NC1CCS(=O)(=O)C1 (configuration not stated)")
20.8
>>> result_number("O=[N+]([O-])c1cccc(S(=O)(=O)NCc2ccncc2)c1")
14.3
>>> result_number("CCCOc1ccc2oc(=O)c3c(c2c1)CCCN3C(=O)CN1CCN(c2ncccn2)CC1")
133
>>> result_number("Oc1c(C(c2cccs2)N2CCC3(CC2)OCCO3)sc2ncnn12 (configuration not stated)")
151
>>> result_number("CCn1nnc2cc(C(=O)Nc3cc(Cl)ccc3C)ccc21")
-11.1
